Where do the numbers come from? From paper PMC6522510.

Test system: MOLM-13
Design: species or system AML cell lines (8); Primary HTS, single concentration about 10 uM, Cell Titer Glo viability; log10 luminescence, per cent inhibition relative to cycloheximide control
Conditions: 72 h, relative to cycloheximide control, log10 luminescence; inhibitor
Task for the reader: assign each of the following compounds its reported MOLM-13 %inh.
Answers are plain numbers, in %.

CCN1CCC(CC(=O)Nc2n[nH]c3nc(-c4cccs4)c(Br)cc23)CC1 [SJ000573264-1, AG201339-025C2]    8.584
Cn1cc(C2=C(c3c4n(c5ccccc35)CCCCC4)C(=O)NC2=O)c2ccccc21 [SJ000581007-1]    -0.4157
Fc1ccc(-c2ncn(CCCN3CCOCC3)c2-c2ccncc2)cc1 [SJ000573144-1, LDD-19018-277B]    2.986

// lookup MOLM-13 %inh for CCn1c(-c2nonc2N)nc2c(C#CC(C)(C)O)ncc(OCC3CCNCC3)c21 [SJ000573338-1, N3180-49-A1]
4.413

----------
Test system: ML2
Assay: Secondary dose-response HTS, Cell Titer Glo
Type: cell-based, human
Conditions: secondary HTS, 72 h, average of triplicate; read-out: EC50 ML2
parameter: pEC50
One number for each entry, as −log10 of the molar value.

// lookup pEC50 for COc1ccc(C[C@H](NC(=O)[C@H](C)NC(=O)CN2CCOCC2)C(=O)N[C@@H](Cc2ccccc2)C(=O)C2(C)CO2)cc1 (stereo in doubt) [ONX-0914, reference compound]
7.40

----------
Test system: CMS
Set-up: species or system AML cell lines (8); Primary HTS, single concentration about 10 uM, Cell Titer Glo viability; log10 luminescence, per cent inhibition relative to cycloheximide control
Conditions: 72 h, relative to cycloheximide control, log10 luminescence; inhibitor
Task for the reader: assign each of the following compounds its reported CMS %inh.
Numbers only, in %.

C#Cc1cccc(Nc2ncnc3ccc(OCCCCNCCS(C)(=O)=O)cc23)c1    3.196

Give me CMS %inh for each of these compounds, listed below.
1. CN(C)[C@@H]1C(=O)C(C(N)=O)=C(O)[C@@]2(O)C(=O)C3=C(O)c4c(O)cccc4[C@@](C)(O)[C@H]3[C@H](O)[C@@H]12
2. CNC(=O)c1cncc(/C=C/c2ccccc2Cl)c1
3. CCOC(=O)[C@H](CCc1ccccc1)N[C@@H](C)C(=O)N1[C@H](C(=O)O)C[C@H]2CCCC[C@@H]21
4. O=C1Nc2ccc(I)cc2C1=Cc1cc(Br)c(O)c(Br)c1
5. c1cnn2ncc(-c3ccnc(Nc4ccc5c(c4)OCCO5)n3)c2c1

0.1991
-0.2342
-0.04443
1.257
106

----------
Test system: ML-2
Parameters: species or system AML cell lines (8); Primary HTS, single concentration about 10 uM, Cell Titer Glo viability; log10 luminescence, per cent inhibition relative to cycloheximide control
Details: 72 h, relative to cycloheximide control, log10 luminescence; inhibitor
parameter: ML-2 %inh (%)
Give bare numbers, in %.

Fc1cccc(COc2ccc(Nc3ncnc4cc(-c5ccc[nH]5)sc34)cc2Cl)c1 [SJ000573252-1, U16950/26/1]    17.93

Give me ML-2 %inh for each of these compounds, listed below.
1. CN1CCC(n2cnc(-c3ccc(F)cc3)c2-c2ccnc(Nc3ccccc3)n2)CC1 [SJ000573236-1, TG19207-284A1]
2. CN1CCN(CCCNc2nc3ccc(Oc4ccc(NC(=O)Nc5cc(C(F)(F)F)ccc5F)cc4)cc3[nH]2)CC1 [SJ000573304-1, T278/35/2]
3. O=C1NC(=O)C(c2ccc(Cl)cc2)=C1Nc1ccc(Cl)c(C(=O)O)c1 [SJ000573148-1, DH98298-170B2]
4. CCn1c(-c2nonc2N)nc2ccncc21 [SJ000573203-1, JS100940-045A1]

[9.737, 1.341, 0.6305, 2.303]

----------
System: CMK
Parameters: species or system AML cell lines (8); Primary HTS, single concentration about 10 uM, Cell Titer Glo viability; log10 luminescence, per cent inhibition relative to cycloheximide control
Conditions: 72 h, relative to cycloheximide control, log10 luminescence; inhibitor
Counter-ions that a name gives are not always drawn.
parameter: CMK %inh (%)
Give bare numbers, in %.

Known results for compounds:
Cn1c(=O)c(Oc2cccc(F)c2)cc2cnc(NC3CCOCC3)nc21    1.711
O=C1Nc2ccccc2/C1=C\c1c(Cl)[nH]c2ccccc12    109.3
CCCCc1ncc(/C=C(\Cc2cccs2)C(=O)O)n1Cc1ccc(C(=O)O)cc1 [SJ000556755-1, EPROSARTAN MESYLATE]    1.513
COc1cc[nH]c1/C=C1\C(=O)Nc2ccccc21    2.429
COc1cccc(COc2cc(-n3cnc4ccccc43)sc2C(N)=O)c1    1.494

Give me CMK %inh for each of these compounds, listed below.
1. O=C(Nc1ccc(Oc2ccc3[nH]c(NC(=O)c4ccco4)nc3c2)cc1)Nc1cc(C(F)(F)F)ccc1F
2. O=Cc1c2[nH]c3ccccc3c2cc2[nH]c3ccccc3c12 [SJ000561043-1, 6-FORMYLINDOLO [3,2-B] CARBAZOLE]
3. O=C1NC(=NCCCc2ccccc2)S/C1=C\c1ccc2ncccc2c1

84.76
0.1175
8.234

----------
Test system: CHRF288-11
Set-up: species or system AML cell lines (8); Primary HTS, single concentration about 10 uM, Cell Titer Glo viability; log10 luminescence, per cent inhibition relative to cycloheximide control
Details: 72 h, relative to cycloheximide control, log10 luminescence; inhibitor
Everything with CHRF288-11 %inh lower than 6% is n; everything else, including exactly 6%, is y.

COc1cc(N2CCN(C(C)C)CC2)ccc1Nc1nc(Nc2ccc(F)cc2C(=O)NC[C@@H](O)CO)c2cc[nH]c2n1    y
Cn1cc(C2=C(c3cn(CCCCCN)c4ccccc34)C(=O)NC2=O)c2ccccc21    n

Item Fc1ccc(-c2ncn(C3CCNCC3)c2-c2ccnc(Oc3ccc4c(c3)OCO4)n2)cc1 with CHRF288-11 %inh of 6% or above?
y

Again, but for COc1cccc(C2=C(c3c(C)n(C)c4ccccc34)C(=O)NC2=O)c1
n

Again, but for CCc1c(C)nc2sc3c(N)ncnc3c2c1C
n

Again, but for CN1CCC(C(=O)Nc2n[nH]c3nnc(-c4ccccc4)cc23)CC1
y

Again, but for Cn1cc(C2=C(c3cn(C)c4ccc(N)cc34)C(=O)NC2=O)c2ccccc21
y

----------
Task for the reader: assign each of the following compounds its reported EC50.
Test system: M07e
Experiment: cells
Design: species or system AML cell lines (8); Secondary HTS, 10-point dose-response in triplicate, Cell Titer Glo viability, four-parameter fit EC50
Settings: M-07e; 72 h cell viability; read-out: M07e

C[C@@H]1NC(=O)[C@H]2CCCN2C(=O)[C@H](CCCCCC(=O)[C@@H]2CO2)NC(=O)[C@@H](C)NC1=O    21 nM

// lookup EC50 for O=C(Nc1ncc([N+](=O)[O-])s1)c1ccc([N+](=O)[O-])c(Cl)c1
> 10000 nM

----------
Test system: U937
Test: Secondary dose-response HTS, Cell Titer Glo
Assay type: cell-based, human
Settings: Homo sapiens, U-937; secondary high-throughput screen; U937; read-out: average effective concentration, U937
Task for the reader: assign each of the following compounds its reported pEC50.
One number for each entry, as −log10 of the molar value.

C/C=C1\NC(=O)[C@H]2CSSCC/C=C/[C@H](CC(=O)N[C@H](C(C)C)C(=O)N2)OC(=O)[C@H](C(C)C)NC1=O [Romidepsin, reference compound]    8.49
COc1cc([C@@H]2c3cc4c(cc3[C@@H](O[C@@H]3O[C@@H]5CO[C@@H](C)O[C@H]5[C@H](O)[C@H]3O)[C@H]3COC(=O)[C@H]23)OCO4)cc(OC)c1O [ETOPOSIDE]    5.37
CO[C@H]1C[C@@H]2CC[C@@H](C)[C@@](O)(O2)C(=O)C(=O)N2CCCC[C@H]2C(=O)O[C@H]([C@H](C)C[C@@H]2CC[C@@H](O)[C@H](OC)C2)CC(=O)[C@H](C)/C=C(\C)[C@@H](O)[C@@H](OC)C(=O)[C@H](C)C[C@H](C)/C=C/C=C/C=C/1C    9.00
O=C(CCCCCCC(=O)Nc1cccnc1)NO [PYROXAMIDE]    5.24
O=C(/C=C/c1cccnc1)NCCCCC1CCN(C(=O)c2ccccc2)CC1    9.00
COc1cc2nc(N3CCCN(C)CC3)nc(NC3CCN(Cc4ccccc4)CC3)c2cc1OC    5.70
COc1cc2c(NC3CCN(C(C)C)CC3)nc(C3CCCCC3)nc2cc1OCCCN1CCCC1 [UNC0638 HYDRATE]    5.35
COCc1c(C(C)C)nc(C(C)C)c(/C=C/[C@@H](O)C[C@@H](O)CC(=O)O)c1-c1ccc(F)cc1    5.64
C=CCNC1=C2C[C@@H](C)C[C@H](OC)[C@H](O)[C@@H](C)/C=C(\C)[C@H](OC(N)=O)[C@@H](OC)/C=C\C=C(/C)C(=O)NC(=CC1=O)C2=O    7.30
Nc1ccccc1NC(=O)c1ccc(CNC(=O)OCc2cccnc2)cc1    5.25

// lookup pEC50 for CC(=O)O[C@@]12CO[C@@H]1C[C@H](O)[C@@]1(C)C(=O)[C@H](O)C3=C(C)[C@@H](OC(=O)[C@H](O)[C@@H](NC(=O)OC(C)(C)C)c4ccccc4)C[C@@](O)([C@@H](OC(=O)c4ccccc4)[C@H]21)C3(C)C [Docetaxel, docetaxel, reference compound]
9.00
